Molecular target: UniProt:Q9NSU2
Experiment: hTREX1 HCT116 Cell Assay (HCT116 dual cells, Lucia luciferase reporter of Type I interferon induction)
Details: TREX1i 4 h before pBR322/BstNI transfection, read after 48 h
Observation type: IC50

Sample answers from the record:
{"columns": ["Compound", "IC50"],
 "data": [
  ["Cc1ccnn1C(c1cc(F)ccc1Cl)C(C)c1nc(C(=O)Nc2cnoc2)c(O)c(=O)n1C (single isomer, unassigned) [Example 145 D1E1]", "10 to 100 nM"],
  ["COCCn1cc(C(c2cc(F)ccc2Cl)C(C)c2nc(C(=O)Nc3cnoc3)c(O)c(=O)n2C)cn1 (single isomer, unassigned) [Example 97 D1E1]", "> 100 nM"],
  ["Cc1nn(C)c(C)c1C(c1ccccc1C#N)C(C)c1nc(C(=O)Nc2cnoc2)c(O)c(=O)n1C (single isomer, unassigned) [Example 78 D1E1]", "< 10 nM"],
  ["CCn1cc(C(c2cc(F)ccc2Cl)C(C)c2nc(C(=O)Nc3cnoc3)c(O)c(=O)n2C)cn1 (single isomer, unassigned) [Example 60 D1E1]", "10 to 100 nM"],
  ["CC(c1nc(C(=O)Nc2cnoc2)c(O)c(=O)n1C)C(c1cnc(C(F)(F)F)cn1)c1ccccc1C#N (single isomer, unassigned) [Example 118 D2E1]", "> 100 nM"]
]}

Input Cc1cc(C(c2cc(F)ccc2C#N)C(C)c2nc(C(=O)Nc3cnoc3)c(O)c(=O)n2C)nn1C (single isomer, unassigned) [Example 112 D1E1] , output reported IC50.
10 to 100 nM

Tell me IC50 reported for CC(c1nc(C(=O)Nc2cnoc2)c(O)c(=O)n1C)C(c1cnn(CCCN(C)C)c1)c1ccccc1C#N (single isomer, unassigned) [Example 34 D1E1]
> 100 nM

----------
# reported koff; entries follow
Target: full length human TREX1 (Homo sapiens)
Construct: N-terminally His-Tev tagged full length human TREX1; made in house; host or cells: E. coli
Sequence (Q9NSU2 1-314): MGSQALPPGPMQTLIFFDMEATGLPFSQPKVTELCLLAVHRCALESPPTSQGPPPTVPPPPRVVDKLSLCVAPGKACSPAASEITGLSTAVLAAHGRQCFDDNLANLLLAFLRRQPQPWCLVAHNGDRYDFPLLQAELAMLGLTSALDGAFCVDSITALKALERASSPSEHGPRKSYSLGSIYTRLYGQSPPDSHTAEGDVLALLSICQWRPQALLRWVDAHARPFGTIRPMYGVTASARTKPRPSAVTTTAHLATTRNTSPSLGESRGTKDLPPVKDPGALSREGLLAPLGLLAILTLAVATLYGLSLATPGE
Assay: TREX1 Kinetics Assays (TR-FRET association and dissociation, global fit with Kintek Explorer)
Format: binding
Details: hTREX1, TR-FRET, 25° C., global fit
Numbers only here, please. The scale is s⁻¹.

Worked cases, answers included:
{"columns": ["Compound", "Assayed target", "koff, s⁻¹"],
 "data": [
  ["Cc1cnc(C(c2ccccc2C#N)C(C)c2nc(C(=O)Nc3cnoc3)c(O)c(=O)n2C)cn1 (single isomer, unassigned)", "full length human TREX1 (Homo sapiens)", "4.82e-05"],
  ["C[C@H](c1nc(C(=O)Nc2cnoc2)c(O)c(=O)n1C)[C@@H](c1cc(F)ccc1C#N)c1cn(C)nc1C#N", "full length human TREX1 (Homo sapiens)", "3.23e-05"],
  ["Cc1nn(C)cc1C(c1cc(F)ccc1C#N)C(C)c1nc(C(=O)Nc2cnoc2)c(O)c(=O)n1C (single isomer, unassigned)", "full length human TREX1 (Homo sapiens)", "3.87e-05"],
  ["Cc1ncc(C(c2ccccc2Cl)C(C)c2nc(C(=O)Nc3cnoc3)c(O)c(=O)n2C)nc1C (single isomer, unassigned)", "full length human TREX1 (Homo sapiens)", "3.07e-05"],
  ["CC(c1nc(C(=O)Nc2cnoc2)c(O)c(=O)n1C)C(c1cnn(C(C)C)c1)c1ccccc1C#N (single isomer, unassigned)", "full length human TREX1 (Homo sapiens)", "2.52e-05"]
]}

Read off the recorded koff for CC(c1nc(C(=O)Nc2cnoc2)c(O)c(=O)n1C)C(c1cnn(C(F)F)c1)c1ccccc1C#N (single isomer, unassigned)
5.73e-05
